system: 463943-066-T-J2-PDC tumor spheroids with HUVEC/MSC, viability; assay: Anticancer human tumor 463943-066-T-J2-PDC patient-derived colon adenocarcinoma cell line growth inhibition [TAK]; details: second compound 3 µM; first compound 0.00316 µM; stronger effect = lower value
I'd appreciate it if you could supply viability, T/C values for the items below.
One number for each entry, in %.

>>> observed_measurement("COc1c(OCCCN2CCOCC2)ccc2c3n(c(=NC(=O)c4cnc(N)nc4)nc12)CCN3 + CC(C)NCC(C(=O)N1CCN(c2ncnc3c2C(C)CC3O)CC1)c1ccc(Cl)cc1")
93.7
>>> observed_measurement("CC(C)n1nc(-c2ccc3oc(N)nc3c2)c2c(N)ncnc21 + CC(C)NCC(C(=O)N1CCN(c2ncnc3c2C(C)CC3O)CC1)c1ccc(Cl)cc1")
93.4
>>> observed_measurement("CC(C)CC(NC(=O)CNC(=O)c1cc(Cl)ccc1Cl)B1OC(=O)CC(CC(=O)O)(C(=O)O)O1 (stereo not given) + CC(C)NCC(C(=O)N1CCN(c2ncnc3c2C(C)CC3O)CC1)c1ccc(Cl)cc1")
95.4
>>> observed_measurement("COC1CC2CCC(C)C(O)(O2)C(=O)C(=O)N2CCCCC2C(=O)OC(C(C)CC2CCC(OCCO)C(OC)C2)CC(=O)C(C)C=C(C)C(O)C(OC)C(=O)C(C)CC(C)C=CC=CC=C1C (stereo not given) + CC(C)NCC(C(=O)N1CCN(c2ncnc3c2C(C)CC3O)CC1)c1ccc(Cl)cc1")
81.4

# evaluate next
## Input Write down the reported viability, T/C (system: 463943-066-T-J2-PDC tumor spheroids with HUVEC/MSC, viability) of CC(C)CC(NC(=O)C(Cc1ccccc1)NC(=O)c1cnccn1)B(O)O (stereo not given) + CC(C)NCC(C(=O)N1CCN(c2ncnc3c2C(C)CC3O)CC1)c1ccc(Cl)cc1
## Output 78.5

###

System: 463943-066-T-J2-PDC tumor spheroids with HUVEC/MSC, viability
Assay: Anticancer human tumor 463943-066-T-J2-PDC cell line growth inhibition [TAK];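 also: spheroids exposed to drugs for seven days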;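 as to viability, T/C: 100% = DMSO vehicle control wells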
Conditions: second compound 9.49 µM; first compound 0.1 µM; stronger effect = lower value
Experimental: Combinatorial screen of targeted agents with TAK-243 and ipatasertib in multi-cell type tumor spheroids […] Compounds. […] If the clinical Cmax for an agent had not been determined, the highest concentration tested was 10 microM. NCI60 Cell Culture. […] The optimal seeding densities for each of the cell lines at each time point assessed were determined prior to performing the concentration response studies. […]
measured_metric: viability, T/C

Consider the following illustrative entries.
>>> observed_measurement("Cc1nc(NC(=O)N2CCCC2C(N)=O)sc1-c1ccnc(C(C)(C)C(F)(F)F)c1 (stereo not drawn) + CC(C)NCC(C(=O)N1CCN(c2ncnc3c2C(C)CC3O)CC1)c1ccc(Cl)cc1")
"95.3%"
>>> observed_measurement("CC(C)CC(NC(=O)CNC(=O)c1cc(Cl)ccc1Cl)B1OC(=O)CC(CC(=O)O)(C(=O)O)O1 (stereo not drawn) + CC(C)NCC(C(=O)N1CCN(c2ncnc3c2C(C)CC3O)CC1)c1ccc(Cl)cc1")
"85.7%"

## Input Write down the reported viability, T/C (system: 463943-066-T-J2-PDC tumor spheroids with HUVEC/MSC, viability) of COc1c(OCCCN2CCOCC2)ccc2c3n(c(=NC(=O)c4cnc(N)nc4)nc12)CCN3 + CC(C)NCC(C(=O)N1CCN(c2ncnc3c2C(C)CC3O)CC1)c1ccc(Cl)cc1
## Output 73.6%

###

I'd appreciate it if you could supply viability, T/C values for the items below.
tested on: 463943-066-T-J2-PDC tumor spheroids with HUVEC/MSC, viability; assay: Anticancer human tumor 463943-066-T-J2-PDC cell line growth inhibition [TAK]; conditions: second compound 0.949 µM; first compound 0.000316 µM; stronger effect = lower value;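 also: spheroids exposed to drugs for seven days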;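 as to viability, T/C: 100% = DMSO vehicle control wells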
Numbers only, in %.

Consider the following illustrative entries.
>>> observed_measurement("CC(C)n1nc(-c2ccc3oc(N)nc3c2)c2c(N)ncnc21 + CC(C)NCC(C(=O)N1CCN(c2ncnc3c2C(C)CC3O)CC1)c1ccc(Cl)cc1")
100
>>> observed_measurement("COC1CC2CCC(C)C(O)(O2)C(=O)C(=O)N2CCCCC2C(=O)OC(C(C)CC2CCC(OCCO)C(OC)C2)CC(=O)C(C)C=C(C)C(O)C(OC)C(=O)C(C)CC(C)C=CC=CC=C1C (centres undefined) + CC(C)NCC(C(=O)N1CCN(c2ncnc3c2C(C)CC3O)CC1)c1ccc(Cl)cc1")
85.5
>>> observed_measurement("CC(C)CC(NC(=O)C(Cc1ccccc1)NC(=O)c1cnccn1)B(O)O (centres undefined) + CC(C)NCC(C(=O)N1CCN(c2ncnc3c2C(C)CC3O)CC1)c1ccc(Cl)cc1")
89.4

# evaluate next
## Input Consider the compound CC(C)CC(NC(=O)CNC(=O)c1cc(Cl)ccc1Cl)B1OC(=O)CC(CC(=O)O)(C(=O)O)O1 (centres undefined) + CC(C)NCC(C(=O)N1CCN(c2ncnc3c2C(C)CC3O)CC1)c1ccc(Cl)cc1 and give its recorded viability, T/C.
## Output 98.3

###

tested on: 463943-066-T-J2-PDC tumor spheroids with HUVEC/MSC, viability; experiment: Anticancer human tumor 463943-066-T-J2-PDC cell line growth inhibition [TAK]; conditions: curve of first compound; second compound 30 µM;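 also: spheroids exposed to drugs for seven days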
I'd appreciate it if you could supply IC50 values for the items below.

Working through the 4 compounds below one at a time, give IC50 for each.
1. CCCS(=O)(=O)Nc1ccc(F)c(C(=O)c2c[nH]c3ncc(-c4ccc(Cl)cc4)cc23)c1F + CC(C)NCC(C(=O)N1CCN(c2ncnc3c2C(C)CC3O)CC1)c1ccc(Cl)cc1
2. CC(C)n1nc(-c2ccc3oc(N)nc3c2)c2c(N)ncnc21 + CC(C)NCC(C(=O)N1CCN(c2ncnc3c2C(C)CC3O)CC1)c1ccc(Cl)cc1
3. CC(=O)Nc1cccc(-n2c(=O)n(C3CC3)c(=O)c3c(Nc4ccc(I)cc4F)n(C)c(=O)c(C)c32)c1 + CC(C)NCC(C(=O)N1CCN(c2ncnc3c2C(C)CC3O)CC1)c1ccc(Cl)cc1
4. CC(C)CC(NC(=O)CNC(=O)c1cc(Cl)ccc1Cl)B1OC(=O)CC(CC(=O)O)(C(=O)O)O1 (stereo not given) + CC(C)NCC(C(=O)N1CCN(c2ncnc3c2C(C)CC3O)CC1)c1ccc(Cl)cc1

## Output
1. > 100000 nM
2. > 100 nM
3. > 30 nM
4. > 100 nM

Working through the 5 compounds below one at a time, give IC50 for each.
1. COC1CC2CCC(C)C(O)(O2)C(=O)C(=O)N2CCCCC2C(=O)OC(C(C)CC2CCC(OCCO)C(OC)C2)CC(=O)C(C)C=C(C)C(O)C(OC)C(=O)C(C)CC(C)C=CC=CC=C1C (stereo not given) + CC(C)NCC(C(=O)N1CCN(c2ncnc3c2C(C)CC3O)CC1)c1ccc(Cl)cc1
2. Cn1cnc2c(F)c(Nc3ccc(Br)cc3Cl)c(C(=O)NOCCO)cc21 + CC(C)NCC(C(=O)N1CCN(c2ncnc3c2C(C)CC3O)CC1)c1ccc(Cl)cc1
3. Cc1nc(NC(=O)N2CCCC2C(N)=O)sc1-c1ccnc(C(C)(C)C(F)(F)F)c1 (stereo not given) + CC(C)NCC(C(=O)N1CCN(c2ncnc3c2C(C)CC3O)CC1)c1ccc(Cl)cc1
4. CC(C)(C)c1nc(-c2cccc(NS(=O)(=O)c3c(F)cccc3F)c2F)c(-c2ccnc(N)n2)s1 + CC(C)NCC(C(=O)N1CCN(c2ncnc3c2C(C)CC3O)CC1)c1ccc(Cl)cc1
5. CC(C)CC(NC(=O)C(Cc1ccccc1)NC(=O)c1cnccn1)B(O)O (stereo not given) + CC(C)NCC(C(=O)N1CCN(c2ncnc3c2C(C)CC3O)CC1)c1ccc(Cl)cc1

## Output
> 100 nM
> 3000 nM
> 10000 nM
> 10000 nM
> 10 nM

## Input Consider the compound COc1c(OCCCN2CCOCC2)ccc2c3n(c(=NC(=O)c4cnc(N)nc4)nc12)CCN3 + CC(C)NCC(C(=O)N1CCN(c2ncnc3c2C(C)CC3O)CC1)c1ccc(Cl)cc1 and give its recorded IC50.
## Output > 1000 nM

###

system: 463943-066-T-J2-PDC tumor spheroids with HUVEC/MSC, viability; experiment: Anticancer human tumor 463943-066-T-J2-PDC cell line growth inhibition [TAK]; conditions: curve of first compound; second compound 0.949 µM;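 also: spheroids exposed to drugs for seven days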
pIC50: −log10 of the molar value.
measured_metric: pIC50

>>> observed_measurement("CC(C)n1nc(-c2ccc3oc(N)nc3c2)c2c(N)ncnc21 + CC(C)NCC(C(=O)N1CCN(c2ncnc3c2C(C)CC3O)CC1)c1ccc(Cl)cc1")
"< 7.00"
>>> observed_measurement("Cc1nc(NC(=O)N2CCCC2C(N)=O)sc1-c1ccnc(C(C)(C)C(F)(F)F)c1 (stereo not given) + CC(C)NCC(C(=O)N1CCN(c2ncnc3c2C(C)CC3O)CC1)c1ccc(Cl)cc1")
"< 5.00"
>>> observed_measurement("CC(C)CC(NC(=O)C(Cc1ccccc1)NC(=O)c1cnccn1)B(O)O (stereo not given) + CC(C)NCC(C(=O)N1CCN(c2ncnc3c2C(C)CC3O)CC1)c1ccc(Cl)cc1")
"< 8.00"
>>> observed_measurement("CC(=O)Nc1cccc(-n2c(=O)n(C3CC3)c(=O)c3c(Nc4ccc(I)cc4F)n(C)c(=O)c(C)c32)c1 + CC(C)NCC(C(=O)N1CCN(c2ncnc3c2C(C)CC3O)CC1)c1ccc(Cl)cc1")
"< 7.52"

# evaluate next
## Input Consider the compound COC1CC2CCC(C)C(O)(O2)C(=O)C(=O)N2CCCCC2C(=O)OC(C(C)CC2CCC(OCCO)C(OC)C2)CC(=O)C(C)C=C(C)C(O)C(OC)C(=O)C(C)CC(C)C=CC=CC=C1C (stereo not given) + CC(C)NCC(C(=O)N1CCN(c2ncnc3c2C(C)CC3O)CC1)c1ccc(Cl)cc1 and give its recorded pIC50.
## Output < 7.00
